Some variants, each annotated with its measured protein stability index.
B1: RHOBTB3 (parent)
chain: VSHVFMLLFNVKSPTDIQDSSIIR

Variants of: B1
ASSAY: protein stability index of a GFP-peptide fusion (GPS, HEK-293T) (PSI 1-6); higher = more stable;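 also: lentivirally expressed fusions sorted by FACS into six bins by GFP to DsRed ratio, PSI derived from sequencing read proportions per bin multiplied by bin number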
CONDITION_SUMMARY: c terminus: a fixed tail appended

Below are worked cases with known answers.
Query (variant): VSHVFMLMFNVKSPTDIQDSSIIR [L8M] ; field requested: protein stability index 2.95

Next entry: VSHVFMLLFNVKEPTDIQDSSIIR [S13E] 2.99

Next entry: VSHVFMLLFNVWSPTDIQDSSIIR [K12W] 4.11

Next entry: VSHVFMLLFNVKSPTTIQDSSIIR [D16T] 2.99

Next entry: VSHVVMLLFNVKSPTDIQDSSIIR [F5V] 3.38

Others:
Query (variant): VSHVLMLLFNVKSPTDIQDSSIIR [F5L] ; field requested: protein stability index 4.65

Next entry: VSHVFMLLFDVKSPTDIQDSSIIR [N10D] 3.9
